- System: DU-145 prostate
- assay.protocol: NCI-60 one-dose screen, 48 h
- test.conditions: 10 µM unless noted
Compounds without any hit were thinned out: in the full panel of roughly 83,000, 20% have a hit. Activity calls are given as the source filed them. The calls were made as follows: active = growth percent below 10; inactive = the rest.
Answer with one of the outcomes given here: y (active), n (inactive)

Solved cases (6 shown):
1. CCCCCCC(=O)C(C)C; n
2. O=C1Nc2ccccc2/C1=C/c1cn(CC(O)Cn2cc(/C=C3\C(=O)Nc4ccccc43)c3ccccc32)c2ccccc12 (stereo not given); y
3. COc1ccc2oc(=O)cc(CN3C(=O)S/C(=C\c4ccc(Cl)cc4)C3=O)c2c1; n
4. O=C(Nc1ccc(-n2cc(-c3ccncc3)c(-c3ccc(Cl)c(O)c3)n2)cc1)c1cc(Cl)cc(Cl)c1; n
5. CC(=O)N1CCN(CCNC(=O)n2cc(-c3ccncc3)c(-c3ccc(O)c(Cl)c3)n2)CC1; n
6. COc1cc(NC(=O)CSc2nc3ccc(Cl)cc3c(=O)n2-c2ccc(F)cc2)cc(OC)c1OC; n

Status in this test for "CC(=O)Nc1nc(C)c(C(=O)NNC(=O)Nc2ccccc2)s1" ? n

Status in this test for "COc1ccc(-c2cn3ccnc3c(-c3ccc4ncn(C5CCCCC5)c4c3)n2)cc1" ? n

Status in this test for "CCCCCCCCCCCCCCCCCC1=NCCN1CS(=O)(=O)O" ? n

Status in this test for "O=C(Nc1cccc(Cn2c(=O)[nH]c3ccc(Oc4ncccn4)cc3c2=O)c1)c1ccc(Cl)cc1" ? n

Status in this test for "Brc1c(-c2ccncc2)nc2n1CCS2" ? n

Status in this test for "O=C(O)COc1ccc([N+](=O)[O-])cc1Cl" ? n

* * *

- Test system: MALME-3M melanoma
- assay.protocol: NCI-60 one-dose screen, 48 h (100 = growth as untreated, 0 = no growth, -100 = all killed)
- test.conditions: 10 µM unless noted
- Method: Cells are grown in 96 well plates and exposed to the test compound for 48 hours. Compounds are tested at a single concentration, which is 10^-5 M for most compounds. The reported endpoint is percent growth (GI% or GIPRCNT), where numbers from 0 - 100% represent growth inhibition, and numbers from -100% - 0 represent cell death. For example, a value of 40 represents 60% growth inhibition. A value of 0 means no net growth occurred over the course of the experiment. […]
About 83,000 compounds went through this panel and 20% of them were active in at least one assay; those are over-represented in the sample as a whole.
Measured growth, listed per entry.
Give just the number in %; leave the unit off.

Example entries and their recorded answers appear below.
1) CC1=NN(c2cccc(Cl)c2)C(=O)/C1=C\c1cn(-c2nc(N3CCOCC3)nc(N3CCOCC3)n2)c2ccccc12; 104
2) O=C(Nc1ccc(-n2cc(-c3ccncc3)c(-c3ccc(Cl)c(O)c3)n2)cc1)c1cc(Cl)cc(Cl)c1; 24.7
3) COc1cc(OC)c(NC(=O)n2ncc3cc(Nc4ncnc5ccccc45)ccc32)cc1Cl; 110

Note to self: growth recorded for "c1cc(C2CCCCC2)ccc1OCCCCCCN1CCNCC1" was 52.7

Note to self: growth recorded for "C/C(=C\c1ccc2ccccc2c1)[N+](=O)[O-]" was -58.7

Note to self: growth recorded for "CC(=O)c1cc(Nc2cc(C)nc(N)n2)cc(C(C)=O)c1" was 45.3

Note to self: growth recorded for "COc1cc(C(=O)Nc2ccc(N(C)C)cc2)cc(OC)c1OC" was 80.6

Note to self: growth recorded for "CCOc1nc(-c2ccccc2)cc2c(O)c(C(=O)N/N=C/c3ccccc3O)[nH]c(=O)c12" was 119

Note to self: growth recorded for Cc1ccc2c(O)c(O)cc(NC(C)CCCN)c2n1 (stereo not given) was 81.6
